Target: T1, Bdf1 bromodomain 2 (GST-tagged, WT) (Saccharomyces cerevisiae (strain ATCC …, UniProt P35817))
T1 chain: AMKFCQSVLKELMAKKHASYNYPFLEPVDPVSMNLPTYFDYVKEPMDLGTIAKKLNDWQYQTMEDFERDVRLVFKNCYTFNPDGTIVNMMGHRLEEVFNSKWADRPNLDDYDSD
Assay: histone peptide array probed with recombinant GST-bromodomain, signal normalised to myc peptide control
Non-standard residues stand in square brackets, D forms with d. Primed or numbered codes have the meaning given here. No end group written: not given here. Me2s″ = symmetric dimethylarginine (Rme2s); Arg(Me2a) = CN(C)C(=N)NCCC[C@H](N)C(=O)O; Arg(Me2s) = CN=C(NC)NCCC[C@H](N)C(=O)O; Lys(Me2) = CN(C)CCCC[C@H](N)C(=O)O; pS = N[C@@H](COP(=O)(O)O)C(=O)O
measurement.kind: binding score

Completed entries (count: 2):
Item: SGRGKGGKGLGKGGAKRHR (S G R G K G G Kac G L G K G G A K R H R) [H4 1-19] | binding score: 0.0237

Item: PRKQLATKAAR(Me2s″)K[pS]APATGG [H3 16-35] | binding score: 0

I. A[Arg(Me2a)]TK(Ac)QTA[Arg(Me2s)][Lys(Me2)]STGGKAPRKQ
II. ARTKQTARKSTGGKAPRKQ (A Rme2a T Kme1 Q T A Rme2a Kac S T G G K A P R K Q)
**Query** Dear colleague, could you let me know whether I or II has the lower recorded binding score? Thanks. Select an item and report its label.
**Result** II

Values were extracted from paper PMC5261807.
